- Test system: DAPI
- assay.overview: TAG lipid buildup inhibition with viability readout – cell-based, panel, Nile Red and DAPI fluorescence, H9c2, dose response (AID 651630);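 further: cells exposed to compound overnight before fixation and staining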
- measurement.setup: H9c2 cells, DAPI nuclear fluorescence (cytotoxicity counter-readout), oleic acid, mean of runs
Activity calls are given as the source filed them.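 How the source made its calls: active means lipid-stain IC50 at or below a set limit, with nuclear-stain toxicity IC50 at least five times higher; inactive means the rest.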
result.type: IC50 cytotoxicity (DAPI nuclear signal decrease)

Form: compound = `CCOC(=O)c1c(CSC(=N)N)n(-c2ccccc2)c2cc(Br)c(OC(C)=O)cc12` ; IC50 cytotoxicity (DAPI nuclear signal decrease) = > 25 µM (inactive)

IC50 cytotoxicity (DAPI nuclear signal decrease) reported for this compound `CNCCCN1c2ccccc2CCc2ccccc21` : > 25 µM (inactive)

Reported IC50 cytotoxicity (DAPI nuclear signal decrease) for `COc1cc(C#Cc2c(-c3cncn3C)n(C)c3ccc(-c4ccc(OC)c(OC)c4)cc23)cc(OC)c1` was > 25 µM (inactive)

IC50 cytotoxicity (DAPI nuclear signal decrease) for `C=CC[C@@H](CC(=O)N(CCO)Cc1ccccc1)C(=O)N[C@@H](COC(=O)[C@@H](CC=C)Cc1ccc(F)cc1)Cc1ccccc1` is > 25 µM (inactive)

Record COc1cc2c(cc1OC)C(C)N(C(=O)c1cc3c(C)cc(C)cc3[nH]1)CC2 (centres undefined) , field IC50 cytotoxicity (DAPI nuclear signal decrease): > 25 µM (inactive)

# compound `COc1ccc(-n2nc(C(=O)Nc3ccc4c(c3)OCO4)c3c4ccccc4n(C)c3c2=O)cc1` ; its IC50 cytotoxicity (DAPI nuclear signal decrease) = > 25 µM (inactive)

IC50 cytotoxicity (DAPI nuclear signal decrease) recorded for this compound, `COc1cc(OC)cc(C(=O)N2CC(=O)Nc3ccccc32)c1` , is > 25 µM (inactive)

Entry under test: COc1cccc(C2c3c(C)nn(-c4ccc([N+](=O)[O-])cc4)c3N=C3C(=O)Nc4ccccc4N32)c1 (centres undefined) . Its IC50 cytotoxicity (DAPI nuclear signal decrease) was > 25 µM (inactive)

Notebook: `Cc1ccc2c(c1)N(C(=O)CCC(=O)NCCCN1CCC(Cc3ccccc3)CC1)CCO2` , IC50 cytotoxicity (DAPI nuclear signal decrease) read as 22.3 µM (inactive)

----------
- System: TAG
- assay.overview: TAG lipid buildup inhibition with viability readout – cell-based, panel, Nile Red and DAPI fluorescence, H9c2, dose response (AID 651630);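 further: cells exposed to compound overnight before fixation and staining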
- measurement.setup: H9c2 cells, Nile Red TAG fluorescence, oleic acid, mean of runs
Activity calls are given as the source filed them.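 How the source made its calls: active means lipid-stain IC50 at or below a set limit, with nuclear-stain toxicity IC50 at least five times higher; inactive means the rest.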
Would you mind answering with one of these outcomes? Yes = active, No = inactive

Query :: Could you kindly confirm the outcome this assay logged for COc1ccccc1NC1=NC(c2ccc(Cl)cc2)N=C(N)N1 (centres undefined) ?
Result :: No

Query :: Query: recorded result category for `Cc1cc(NC(=O)c2sccc2C)n(-c2nc3ccccc3[nH]2)n1` in this test
Result :: No

Query :: Lab log entry: `COc1cccc(/C=N/NC(=O)CSc2cccc3cccnc23)c1` — outcome as called in the assay?
Result :: No

Query :: Recorded test call requested for `CC(C)(C)c1cc(NCc2ccccn2)n2ncc(-c3ccc(Cl)cc3)c2n1`
Result :: No

Query :: Per the assay record, what outcome was assigned to CC1(C(=O)NCc2cccs2)Cc2c(-c3ccc4c(c3)OCO4)ccnc2O1 (centres undefined) ?
Result :: No

Query :: Hey, what did the test say about `Cc1nc(N/N=C/c2cccc(F)c2)cc(N2CCOCC2)n1` ?
Result :: Yes

Query :: I'd appreciate the recorded outcome for `CCN1C(=O)[C@H]2[C@@H](c3ccc(-c4cccc(Cl)c4)cc3)N[C@@](Cc3ccccc3)(C(=O)OC)[C@H]2C1=O` from this test.
Result :: No

Query :: Returns: the outcome recorded for `COc1cc(-c2cc(NC=O)c3ncc(-c4cccc(C(=O)N(C)C)c4)n3c2)cc(OC)c1OC` in this assay.
Result :: Yes

Query :: What is the recorded call for this molecule in the test? `Cc1ccc(/C=N/NC(=O)c2cc(-c3cccnc3)nc3ccccc23)cc1`
Result :: No

Query :: For `CN(C)CCNC=C(C(=O)Nc1ccc(Cl)cc1Cl)C(=O)Nc1ccc(Cl)cc1Cl` , which call appears in the assay record?
Result :: Yes

Query :: Lab log entry: `COc1cc2ccccc2cc1C(=O)N/N=C/c1cccs1` — outcome as called in the assay?
Result :: No

Query :: Short answer needed: outcome of this test for `Cc1ccc(C(=O)NCCN2C3=NC[C@H](C(C)C)N3C[C@H]2Cc2ccc(O)cc2)cc1Br` ?
Result :: No

Query :: Dear all, I need the recorded test outcome for `Cc1ccc(NC(=O)c2nc[nH]c2C(=O)NCCCCNC(=O)c2[nH]cnc2C(=O)Nc2ccc(C)cc2)cc1` , thank you.
Result :: Yes

Query :: Each molecule tested received a call. Report the one for `CCN(CC)CCNc1ncnc2c1sc1nc(N3CCCC3)c3c(c12)CC(C)(C)OC3` .
Result :: No

Query :: I would be grateful if you could indicate the recorded call for `O=C(Nc1ccccc1N1CCCCC1)c1ncoc1-c1ccc(F)cc1` .
Result :: No

Query :: Which outcome was assigned to `CC(=O)O[C@H]1C[C@@]2(C)[C@@H](C[C@@H](O)[C@H]3[C@@]4(C)CC[C@@H](O)[C@@H](C)[C@@H]4CC[C@@]32C)/C1=C(\CCC=C(C)C)C(=O)O` in this test?
Result :: No

Query :: Any idea what this test logged for `Cc1cccc2cc(C#N)c(SCC(=O)NNC(=O)Cc3ccccc3)nc12` ?
Result :: No

Query :: Which outcome was assigned to O=C(NCC(c1ccc(F)cc1)N1CCOCC1)c1ccc([N+](=O)[O-])o1 (centres undefined) in this test?
Result :: No

Query :: Assay outcome for `Cc1ccc(NC(=S)N(CCCN2CCCC2)Cc2cccn2Cc2ccc(Cl)cc2)cc1Cl` : what was it?
Result :: No

Query :: Field: outcome | Entry: `N#C/C(=C\Nc1ccc2cn[nH]c2c1)c1nc(-c2ccc(Cl)cc2)cs1`
Result :: Yes

Query :: Which outcome was assigned to `c1ccc(-c2csc(NNC3=NCCCCC3)n2)cc1` in this test?
Result :: Yes

Query :: Short answer needed: outcome of this test for `O=C(N/N=C/c1cn(-c2ccccc2)nc1-c1cc2ccccc2o1)c1c[nH]c2ccccc12` ?
Result :: Yes

Query :: Assay result, entry `CCCC[C@H](CN[C@@H](CNC)[C@H](C)CC)NCCC12CCC(CC1)C2` — outcome?
Result :: No

Query :: # fetch the recorded call for CCN(CC)CCC(c1ccc2c(c1)OCO2)c1c(OC)cc(OC)c2c(-c3ccccc3)cc(=O)oc12 (centres undefined) here
Result :: No

Query :: I would be grateful if you could indicate the recorded call for `CCOC(=O)c1c(CN2CCNCC2)nc2ccc(Cl)cc2c1-c1ccccc1` .
Result :: No

Query :: Which result was noted for this molecule in the test: `Cc1cc(N/N=C\c2ccc(Br)cc2)nc(-n2nc(C)cc2C)n1`
Result :: No

Query :: Each molecule tested received a call. Report the one for CCOc1ccc2nc(NC(=O)C3CCCN(S(=O)(=O)c4c(C)noc4C)C3)sc2c1 (centres undefined) .
Result :: Yes

Query :: In this assay, the call recorded for `COc1cccc(-c2nc(-c3ccc(NC(=O)Cc4ccccc4OC)cc3)no2)c1` was what?
Result :: Yes

Query :: Which outcome was assigned to CC(C)C[C@@H](CN1CCCC1CN1C(=S)NC[C@@H]1Cc1ccc(O)cc1)N1C[C@H](Cc2ccccc2)N(CC2CCCCC2)C1=S (some centres undefined) in this test?
Result :: No

----------
- Tested on: TAG
- assay.overview: TAG lipid buildup inhibition with viability readout – cell-based, panel, Nile Red and DAPI fluorescence, H9c2, dose response (AID 651630);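 further: cells exposed to compound overnight before fixation and staining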
- measurement.setup: H9c2 cells, Nile Red TAG fluorescence, oleic acid, mean of runs
Active and inactive are the calls of the source.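 Rule for the calls: active = lipid-stain IC50 at or below a set limit, with nuclear-stain toxicity IC50 at least five times higher; inactive = the rest.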
Permitted responses: active, inactive

Query :: Call for entry CC(=O)Nc1ccc(NC2=Nc3ccccc3N3C2=Nc2c(c(C)nn2-c2ccccc2)C3c2ccccc2)cc1 (stereo unspecified) :
Result :: inactive

Query :: Each molecule tested received a call. Report the one for `CCOc1ccc(CCNC(=O)CCc2nc(-c3ccc(C)cc3)no2)cc1OCC` .
Result :: inactive

Query :: Entry `COC(=O)[C@]1(CC(C)C)N[C@H](c2ccc(-c3ccc(F)cc3)cc2)[C@@H]2C(=O)N(C)C(=O)[C@@H]21` : call = ?
Result :: active

Query :: Hi team, can someone confirm the assay call for `O=C(Nc1ccc([N+](=O)[O-])cn1)c1cc(-c2cccc(Cl)c2)nc2ccccc12` ?
Result :: active

Query :: Could you check what this test reported for `Cc1[nH]c2ccccc2c1/C=N/Nc1nc(Nc2ccc(F)cc2)nc(N2CCOCC2)n1` ?
Result :: inactive

Query :: // param item: `CCCCc1ccc(N=N/C(C(=O)Nc2cc(OC)c(NC(C)=O)cc2OC)=C(/C)O)cc1` ; yields the recorded call
Result :: active

Query :: Any idea what this test logged for `CCOc1ccc2nc(NC(=O)CN3CCC(n4nnc5cc(F)ccc54)CC3)sc2c1` ?
Result :: inactive

Query :: Entry `CC(C)N(C(=O)[C@H]1C[C@H](CC(=O)NCc2cccc(C(F)(F)F)c2)C(=O)N2CCc3c([nH]c4ccc(Cl)cc34)[C@]12C)C(C)C` : call = ?
Result :: active

Query :: Field: outcome | Entry: `COc1cccc(-c2cc(C(=O)Nc3ccc(N(C)C(C)=O)cc3)c3cc(Br)ccc3n2)c1`
Result :: active

Query :: Query: recorded result category for `Cc1ccc(-c2nn(-c3ccccc3)cc2NC(=O)CCl)cc1` in this test
Result :: inactive

Query :: I would be grateful if you could indicate the recorded call for `CCOc1ccc(CCNC(=O)CN2CCN(Cc3ccccc3F)C2=O)cc1OCC` .
Result :: active
